molecular target: BRAF G466V (Homo sapiens, UniProt P15056, G466V); construct: expressed in transfected cells; experiment: Cellular assay of target protein degradation, T-Rex 293 cells stably transfected with HA-BRAF G466V (HA immunofluorescence, high content imaging); type: cell-based; details: half maximal degradation, T-Rex 293 HA-BRAF G466V; read-out: BRaf G466V DC50
Sequence (P15056 whole entry G466V): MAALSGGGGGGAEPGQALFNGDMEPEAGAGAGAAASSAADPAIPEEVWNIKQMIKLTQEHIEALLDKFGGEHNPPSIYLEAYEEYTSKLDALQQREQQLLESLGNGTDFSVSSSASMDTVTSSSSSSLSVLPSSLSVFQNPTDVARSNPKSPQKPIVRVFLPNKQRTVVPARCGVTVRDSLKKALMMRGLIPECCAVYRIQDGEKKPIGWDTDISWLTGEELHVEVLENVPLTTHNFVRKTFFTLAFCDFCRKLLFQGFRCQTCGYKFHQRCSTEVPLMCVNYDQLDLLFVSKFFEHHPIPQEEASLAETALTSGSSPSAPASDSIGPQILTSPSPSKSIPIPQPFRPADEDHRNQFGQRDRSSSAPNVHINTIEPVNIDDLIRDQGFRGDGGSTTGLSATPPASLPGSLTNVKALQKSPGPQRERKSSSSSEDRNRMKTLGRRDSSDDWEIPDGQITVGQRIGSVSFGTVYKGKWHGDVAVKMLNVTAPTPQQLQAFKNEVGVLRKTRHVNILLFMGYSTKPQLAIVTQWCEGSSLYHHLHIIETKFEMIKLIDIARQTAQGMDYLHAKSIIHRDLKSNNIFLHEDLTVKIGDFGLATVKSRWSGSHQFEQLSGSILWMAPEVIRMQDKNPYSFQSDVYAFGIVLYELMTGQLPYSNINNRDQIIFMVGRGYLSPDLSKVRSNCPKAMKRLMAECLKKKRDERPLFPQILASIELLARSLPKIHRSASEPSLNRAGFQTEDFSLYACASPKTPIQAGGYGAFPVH
Readings of DC50 for the listed molecules

Illustrative cases are given below, each with its answer.
Molecule	Reported
CN(CC1CCN(c2ccc3c(c2)CN(C2CCC(=O)NC2=O)C3=O)CC1)[C@H]1C[C@@H](Oc2ccc(-c3cnc4[nH]cc(C(=O)c5c(F)ccc(NS(=O)(=O)N6CC[C@@H](F)C6)c5F)c4c3)cc2)C1 (some centres unmarked) [Compound 167]	1 to 10 nM
O=C1CC[C@@H](N2Cc3cc(C4CCN(CC5CCN(c6ccc(-c7cnc8[nH]cc(C(=O)c9c(F)ccc(NS(=O)(=O)N%10CCCC%10)c9F)c8c7)cc6)CC5)CC4)ccc3C2=O)C(=O)N1 [Compound 231]	1 to 10 nM
O=C1CCC(N2Cc3cc(N4CCC(CN5CCN(c6ncc(-c7cnc8[nH]cc(C(=O)c9c(F)ccc(NS(=O)(=O)N%10CC[C@@H](F)C%10)c9F)c8c7)cn6)CC5)CC4)ccc3C2=O)C(=O)N1 (some centres unmarked) [Compound 18]	< 1 nM
O=C1CCC(N2Cc3cc(OCCCCN4CCN(c5ccc(-c6cnc7[nH]cc(C(=O)c8c(F)ccc(NS(=O)(=O)N9CCC(F)(F)C9)c8F)c7c6)cc5)CC4)ccc3C2=O)C(=O)N1 (centres unmarked) [Compound 251]	1 to 10 nM

Could you now look at the following molecule, please?
Report DC50 for C[C@H]1[C@H](F)CCN1S(=O)(=O)Nc1ccc(F)c(C(=O)c2c[nH]c3ncc(-c4ccc(N5CCC(CN6CCC(c7ccc8c(c7)CN([C@H]7CCC(=O)NC7=O)C8=O)CC6)CC5)cc4)cc23)c1F [Compound 270] please.
1 to 10 nM

----------
molecular target: BRAF V600E (Homo sapiens, UniProt P15056, V600E); construct: expressed in transfected cells; test: Cellular assay of target protein degradation, T-Rex 293 cells stably transfected with HA-BRAF_V600E (HA immunofluorescence, high content imaging); format: cell-based; conditions: read-out: BRaf V600E DC50; half maximal degradation, T-Rex 293 HA-BRAF V600E
Sequence (P15056 whole entry V600E): as the sequence (P15056 whole entry G466V) above, with V466G, V600E counted along it
Measured Quantity: DC50

Compound	Subject Of Test	DC50
O=C1CCC(N2Cc3cc(C4CCN(CC5CCN(c6ccc(-c7cnc8[nH]cc(C(=O)c9c(F)ccc(NS(=O)(=O)N%10CC[C@@H](F)C%10)c9F)c8c7)cc6F)CC5)CC4)ccc3C2=O)C(=O)N1 (stereo partly shown)	BRAF V600E (Homo sapiens, UniProt P15056, V600E)	5 to 50 nM

# input compound: O=C1CCC(N2Cc3cc(C4CCN(CC5CC6(C5)CN(c5ccc(-c7cnc8[nH]cc(C(=O)c9c(F)ccc(NS(=O)(=O)N%10CC[C@@H](F)C%10)c9F)c8c7)cc5F)C6)CC4)ccc3C2=O)C(=O)N1 (stereo partly shown) ; wanted: its DC50
5 to 50 nM

----------
biological target: BRAF G466V (Homo sapiens, UniProt P15056, G466V); construct: expressed in transfected cells; assay: Cellular assay of target protein degradation, T-Rex 293 cells stably transfected with HA-BRAF G466V (HA immunofluorescence, high content imaging); type: cell-based; details: maximum degradation observed, T-Rex 293 HA-BRAF G466V
The entries below come with measured Dmax values attached.

Take a look at these entries with their results.
Compound	Reported
CCCS(=O)(=O)Nc1ccc(F)c(C(=O)c2c[nH]c3ncc(-c4ccc(N5CCC(CN6CCC(c7ccc8c(c7)CN([C@@H]7CCC(=O)NC7=O)C8=O)CC6)CC5)cc4)cc23)c1F	> 70%
O=C1CCC(N2Cc3cc(N4CCC(N5C[C@@H]6C[C@H]5CN(c5ccc(-c7cnc8[nH]cc(C(=O)c9c(F)ccc(NS(=O)(=O)N%10CC[C@@H](F)C%10)c9F)c8c7)cc5)C6)CC4)ccc3C2=O)C(=O)N1 (stereo partly drawn)	35 to 70%
O=C1CC[C@H](NC(=O)c2ccc(N3CCN(CCN4CCN(c5ccc(-c6cnc7[nH]cc(C(=O)c8c(F)ccc(NS(=O)(=O)N9CC[C@@H](F)C9)c8F)c7c6)cc5)CC4)CC3)cc2F)C(=O)N1	35 to 70%
O=C1CC[C@H](N2Cc3cc(C4CCN(CC5CCN(c6ccc(-c7cnc8[nH]cc(C(=O)c9c(F)ccc(NS(=O)(=O)N%10CC[C@@H](F)C%10)c9F)c8c7)cc6F)CC5)CC4)ccc3C2=O)C(=O)N1	> 70%

Missing value: Dmax, BRAF G466V (Homo sapiens, UniProt P15056, G466V), entry O=C1CCC(N2Cc3cc(C4CCN(CC5(O)CCN(c6ccc(-c7cnc8[nH]cc(C(=O)c9c(F)ccc(NS(=O)(=O)N%10CC[C@@H](F)C%10)c9F)c8c7)cc6)CC5)CC4)ccc3C2=O)C(=O)N1 (stereo partly drawn) . Fill in?
35 to 70%

Look up Dmax with BRAF G466V (Homo sapiens, UniProt P15056, G466V) for this compound: O=C1CCC(N2Cc3cc(N4CC5(CN(c6ccc(-c7cnc8[nH]cc(C(=O)c9c(F)ccc(NS(=O)(=O)N%10CC[C@@H](F)C%10)c9F)c8c7)cc6)C5)C4)ccc3C2=O)C(=O)N1 (stereo partly drawn)
35 to 70%

Param readout= Dmax; system= BRAF G466V (Homo sapiens, UniProt P15056, G466V); entry= O=C1CC[C@H](N2Cc3cc(C4CCN(CC5CCN(c6ccc(-c7cnc8[nH]cc(C(=O)c9c(F)ccc(NS(=O)(=O)N%10CC[C@@H](F)C%10)c9Cl)c8c7)cc6)CC5)CC4)ccc3C2=O)C(=O)N1 ; returns value.
35 to 70%

Look up Dmax with BRAF G466V (Homo sapiens, UniProt P15056, G466V) for this compound: O=C1CCC(NC(=O)N2CCCc3c(N4CCN(CC5CCN(c6ccc(-c7cnc8[nH]cc(C(=O)c9c(F)ccc(NS(=O)(=O)N%10CC[C@@H](F)C%10)c9F)c8c7)cc6)CC5)CC4)ccnc32)C(=O)N1 (stereo partly drawn)
> 70%

Fill in the recorded Dmax for this compound, with BRAF G466V (Homo sapiens, UniProt P15056, G466V) as test system: O=C1CCC(N2Cc3cc(C4CCN(CCCc5ccc(-c6cnc7[nH]cc(C(=O)c8c(F)ccc(NS(=O)(=O)N9CC[C@@H](F)C9)c8F)c7c6)cc5)CC4)ccc3C2=O)C(=O)N1 (stereo partly drawn)
35 to 70%

Requested read-out Dmax, target or system BRAF G466V (Homo sapiens, UniProt P15056, G466V), entry O=C1CCC(N2Cc3cc(N4CC(CN5CCC(c6ccc(-c7cnc8[nH]cc(C(=O)c9c(F)ccc(NS(=O)(=O)N%10CC[C@@H](F)C%10)c9F)c8c7)cc6)CC5)C4)ccc3C2=O)C(=O)N1 (stereo partly drawn)
> 70%

Form: Entry = COc1cc(C2CCN(CC3CCN(c4ccc(-c5cnc6[nH]cc(C(=O)c7c(F)ccc(NS(=O)(=O)N8CC[C@@H](F)C8)c7F)c6c5)cc4)CC3)CC2)ccc1C(=O)NC1CCC(=O)NC1=O (stereo partly drawn) | System = BRAF G466V (Homo sapiens, UniProt P15056, G466V) | Dmax = ____
35 to 70%

Param readout = Dmax; param system = BRAF G466V (Homo sapiens, UniProt P15056, G466V); param query = O=C1CC[C@H](NC(=O)c2ccc(N3CCN(CCc4ccc(-c5cnc6[nH]cc(C(=O)c7c(F)ccc(NS(=O)(=O)N8CC[C@@H](F)C8)c7F)c6c5)cc4)CC3)cc2F)C(=O)N1 ; response: value
35 to 70%

Under BRAF G466V (Homo sapiens, UniProt P15056, G466V): Dmax value of O=C1CCC(N2Cc3cc(N4CCN(c5cc(N6CCN(c7ccc(-c8cnc9[nH]cc(C(=O)c%10c(F)ccc(NS(=O)(=O)N%11CC[C@@H](F)C%11)c%10F)c9c8)cc7)CC6)ncn5)CC4)ccc3C2=O)C(=O)N1 (stereo partly drawn) ?
35 to 70%

Provide the documented Dmax with BRAF G466V (Homo sapiens, UniProt P15056, G466V) as the system for COc1cc(N2CC3(CN(CC4CCN(c5ccc(-c6cnc7[nH]cc(C(=O)c8c(F)ccc(NS(=O)(=O)N9CC[C@@H](F)C9)c8F)c7c6)cc5)CC4)C3)C2)ccc1C(=O)N[C@@H]1CCC(=O)NC1=O
> 70%
